- Study system: FADD
- Experimental context: ASO; note: test concentration or dose not given here
These antisense oligonucleotides have a phosphorothioate backbone; sugars and methylation of C are not fully specified.
# note: boundary value 0.7 maps to false; remaining target (mRNA or protein) (fraction of control) below it maps to true

Use these answered entries as a reference point.
1) TTTGATACAAAACAGTAA
true
2) GCCAGCCTTCTCCAATCT
true
3) GAACCAAAGTCCAGGCTG
false

stdin: Identify whether the sequence GGCCCCACTCCTGTTCTG records remaining target (mRNA or protein) (fraction of control) below 0.7.
stdout: true

stdin: Identify whether the sequence CACACAGGTCTTCTTCCC records remaining target (mRNA or protein) (fraction of control) below 0.7.
stdout: false

stdin: Identify whether the sequence CTGTGTTCTTCCAGATTC records remaining target (mRNA or protein) (fraction of control) below 0.7.
stdout: false

stdin: Identify whether the sequence GCCCCTACTTAGCAGTCT records remaining target (mRNA or protein) (fraction of control) below 0.7.
stdout: true

stdin: Identify whether the sequence GTCTGAGACTTTGAGCTG records remaining target (mRNA or protein) (fraction of control) below 0.7.
stdout: false

stdin: Identify whether the sequence CTCCGGTGCCTGATTCAC records remaining target (mRNA or protein) (fraction of control) below 0.7.
stdout: false

stdin: Identify whether the sequence GTTGCGTTCTCCTTCTCT records remaining target (mRNA or protein) (fraction of control) below 0.7.
stdout: false

stdin: Identify whether the sequence CCAGCGGCCCAAGGATTC records remaining target (mRNA or protein) (fraction of control) below 0.7.
stdout: false

stdin: Identify whether the sequence GCTCGCTGCTCGACAGGC records remaining target (mRNA or protein) (fraction of control) below 0.7.
stdout: false

stdin: Identify whether the sequence GATGCTGTCGATCTTGGT records remaining target (mRNA or protein) (fraction of control) below 0.7.
stdout: false

stdin: Identify whether the sequence AGTTGTAAAGCTGTGTTT records remaining target (mRNA or protein) (fraction of control) below 0.7.
stdout: true

stdin: Identify whether the sequence TGGAGTAACAGTGTGACT records remaining target (mRNA or protein) (fraction of control) below 0.7.
stdout: true

stdin: Identify whether the sequence GACAGGCTGGACGACACC records remaining target (mRNA or protein) (fraction of control) below 0.7.
stdout: true

stdin: Identify whether the sequence ACCAGGAACGGGTCCATG records remaining target (mRNA or protein) (fraction of control) below 0.7.
stdout: false

stdin: Identify whether the sequence TCATAGTGAGGAAGAAAT records remaining target (mRNA or protein) (fraction of control) below 0.7.
stdout: false

stdin: Identify whether the sequence CTCCAGCTTGCGCTTGAC records remaining target (mRNA or protein) (fraction of control) below 0.7.
stdout: false

stdin: Identify whether the sequence CCCCACATTATCACATAT records remaining target (mRNA or protein) (fraction of control) below 0.7.
stdout: false

====

Documented remaining target (mRNA or protein) (fraction of control) across a set of sequences
- Study system: TNFRSF1A
- Experimental context: ASO
These antisense oligonucleotides have a phosphorothioate backbone; sugars and methylation of C are not fully specified.

Worked examples, 3 sequences total:
1) AGCGGCAGCAGCAGGTCA
≥ 1
2) TAACATTCTCAATCTGGG
≥ 1
3) CCGCCTCCAGGTCGCCAG
≥ 1

stdin: Tell me measured remaining target (mRNA or protein) (fraction of control) for CTCAGGGACGAACCAGGG please.
stdout: 0.97

stdin: Tell me measured remaining target (mRNA or protein) (fraction of control) for GTCTGAGGTGGTTTTCTG please.
stdout: 0.66

stdin: Tell me measured remaining target (mRNA or protein) (fraction of control) for GCCAAGTTTCTATTAGTG please.
stdout: 0.9

stdin: Tell me measured remaining target (mRNA or protein) (fraction of control) for GCTTTTCTTACAGTTACT please.
stdout: 0.9

stdin: Tell me measured remaining target (mRNA or protein) (fraction of control) for CCATTGAGGCAGAGGCTG please.
stdout: 0.52

stdin: Tell me measured remaining target (mRNA or protein) (fraction of control) for CTTAGTAGTAGTTCCTTC please.
stdout: 0.85

stdin: Tell me measured remaining target (mRNA or protein) (fraction of control) for AGGCTCTGTGGCTTGTGG please.
stdout: 0.53

stdin: Tell me measured remaining target (mRNA or protein) (fraction of control) for ACGGTGTTCTGTTTCTCC please.
stdout: 0.93
